# Test system: Bacillus spizizenii
# protocol: Antibacterial activity against Bacillus subtilis ATCC 6633 assessed as growth inhibition after 24 hrs by two-fold serial dilution method
# Type: functional
# test settings: ATCC 6633, 24 h
For each of the compounds below, state its MIC.
Answers are plain numbers, in µg/mL.

Consider the worked cases shown below.
[
  {
    "query smiles": "Cc1cc(C)n2nc(SCc3nnc(SCc4cccc(Cl)c4)s3)nc2n1",
    "unit tag": "µg/mL",
    "MIC": 50
  },
  {
    "query smiles": "Cc1ccc(CSc2nnc(CSc3nc4nc(C)cc(C)n4n3)s2)c([N+](=O)[O-])c1",
    "unit tag": "µg/mL",
    "MIC": 25
  },
  {
    "query smiles": "COc1cccc(CSc2nnc(CSc3nc4nc(C)cc(C)n4n3)s2)c1",
    "unit tag": "µg/mL",
    "MIC": 50
  },
  {
    "query smiles": "Cc1cc(C)n2nc(SCc3nnc(SCc4cccc(Br)c4)s3)nc2n1",
    "unit tag": "µg/mL",
    "MIC": 12.5
  },
  {
    "query smiles": "Cc1cc(C)n2nc(SCc3nnc(SCc4ccc(F)cc4F)s3)nc2n1",
    "unit tag": "µg/mL",
    "MIC": 25
  }
]

Reported MIC ( Cc1cc(C)n2nc(SCc3nnc(SCc4ccc(C)c([N+](=O)[O-])c4)s3)nc2n1 ) = 12.5

----------
# Tested on: Fusarium oxysporum
# protocol: Antifungal activity against Fusarium oxysporum assessed as inhibition of mycelia elongation rate at 50 ppm after 48 hrs relative to control
# Type: functional
For each of the molecules below, state its inhibition at 50 ppm.
Numbers only, in %.

[
  {
    "query smiles": "Cc1cc(C)n2nc(SCc3nnc(SCc4ccc(C)c([N+](=O)[O-])c4)s3)nc2n1",
    "inhibition at 50 ppm (%)": 40
  },
  {
    "query smiles": "Cc1cc(C)n2nc(SCc3nnc(SCc4ccccc4Br)s3)nc2n1",
    "inhibition at 50 ppm (%)": 40
  }
]

Please look at the following molecule next.
Reported inhibition at 50 ppm ( Cc1cc(C)n2nc(SCc3nnc(SCc4ccccc4Cl)s3)nc2n1 ) = 40

----------
# protocol: Antifungal activity against Physalospora pyricola assessed as inhibition of mycelia elongation rate at 50 ppm after 48 hrs relative to control
# Assay type: functional
# test settings: Botryosphaeria berengeriana
endpoint name: inhibition

# map each molecule to its inhibition
1. Cc1cc(C)n2nc(SCc3nnc(SCc4cccc(Br)c4)s3)nc2n1
2. Cc1cc(C)n2nc(SCc3nnc(SCc4cccc(F)c4)s3)nc2n1

1. 58%
2. 71%

Reported inhibition ( COC(=O)Nc1nc2ccccc2[nH]1 [CARBENDAZIM] ) = 74%

----------
# protocol: Antifungal activity against Physalospora pyricola assessed as inhibition of mycelia elongation rate at 50 ppm after 48 hrs relative to control
# Assay type: functional
# test settings: Botryosphaeria berengeriana
endpoint name: inhibition (%)
One number for each entry, in %.

Consider the worked cases shown below.
[
  {
    "compound": "Cc1cc(C)n2nc(SCc3nnc(SCc4ccc(Br)cc4)s3)nc2n1",
    "inhibition (%)": 76
  },
  {
    "compound": "Cc1cc(C)n2nc(SCc3nnc(SCc4ccccc4F)s3)nc2n1",
    "inhibition (%)": 78
  },
  {
    "compound": "Cc1cc(C)n2nc(SCc3nnc(SCc4c(F)cccc4F)s3)nc2n1",
    "inhibition (%)": 73
  },
  {
    "compound": "Cc1cc(C)n2nc(SCc3nnc(SCc4ccccc4Cl)s3)nc2n1",
    "inhibition (%)": 77
  }
]

# map each compound to its inhibition
1. CC(C)(C)C(=O)C(Oc1ccc(Cl)cc1)n1cncn1 (stereo not given)
2. C=Cc1ccc(CSc2nnc(CSc3nc4nc(C)cc(C)n4n3)s2)cc1
3. Cc1cc(C)n2nc(SCc3nnc(SCc4ccc(Br)cc4F)s3)nc2n1
4. Cc1cc(C)n2nc(SCc3nnc(SCc4cccc([N+](=O)[O-])c4)s3)nc2n1

1: 55; 2: 72; 3: 82; 4: 63

# map each compound to its inhibition
1. Cc1ccc(CSc2nnc(CSc3nc4nc(C)cc(C)n4n3)s2)cc1
2. Cc1cccc(CSc2nnc(CSc3nc4nc(C)cc(C)n4n3)s2)c1

1. 74
2. 72

// data source = ChEMBL document CHEMBL2384957
